- system: rat CB1 receptor (Rattus norvegicus)
- Sequence (P20272 whole entry): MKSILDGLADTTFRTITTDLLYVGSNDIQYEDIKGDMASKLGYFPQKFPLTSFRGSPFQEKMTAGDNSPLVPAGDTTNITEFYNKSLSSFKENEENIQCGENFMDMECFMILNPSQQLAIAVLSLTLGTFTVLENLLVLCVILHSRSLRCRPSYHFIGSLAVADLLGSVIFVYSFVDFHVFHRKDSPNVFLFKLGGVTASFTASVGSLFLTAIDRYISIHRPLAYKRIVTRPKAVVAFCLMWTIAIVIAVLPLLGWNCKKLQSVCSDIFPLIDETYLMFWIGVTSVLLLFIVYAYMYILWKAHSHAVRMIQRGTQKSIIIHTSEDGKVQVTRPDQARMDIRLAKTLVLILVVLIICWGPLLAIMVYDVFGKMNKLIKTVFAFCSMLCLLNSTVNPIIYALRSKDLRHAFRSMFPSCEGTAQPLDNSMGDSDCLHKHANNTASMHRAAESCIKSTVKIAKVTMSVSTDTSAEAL
- procedure details: cAMP activation assay, rat CB1
- Assay type: cell-based
parameter: EC50 (nM)
Response body: numeric value in nM, unit text excluded.

INPUT: Sample CCCCCCN1C(=O)/C(=N\NC(=O)c2ccccc2)c2ccccc21 [MDA19] — what was its EC50?
OUTPUT: 814

----------
- system: rat CB2 receptor (Rattus norvegicus)
- Sequence (Q9QZN9 whole entry): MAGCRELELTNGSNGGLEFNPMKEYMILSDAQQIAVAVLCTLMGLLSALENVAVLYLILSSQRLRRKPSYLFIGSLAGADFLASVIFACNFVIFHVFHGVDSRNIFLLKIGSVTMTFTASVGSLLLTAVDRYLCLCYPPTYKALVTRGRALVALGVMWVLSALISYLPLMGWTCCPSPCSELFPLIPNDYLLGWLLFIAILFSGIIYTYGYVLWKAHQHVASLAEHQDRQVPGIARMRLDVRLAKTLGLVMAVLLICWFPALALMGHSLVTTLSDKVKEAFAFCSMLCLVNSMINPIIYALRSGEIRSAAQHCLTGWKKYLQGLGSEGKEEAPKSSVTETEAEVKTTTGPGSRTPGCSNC
- procedure details: GTPγ[35S] functional assay, rat CB2
- Type: biochemical
- condition label: read-out: GTPγ[35S] functional assays Rat CB2 EC50; agonism
parameter: EC50 (nM)
Response body: numeric value in nM, unit text excluded.

INPUT: Sample CCCCCCC(C)(C)c1ccc([C@@H]2C[C@H](O)CC[C@H]2CCCO)c(O)c1 [CP 55,940, reference compound] — what was its EC50?
OUTPUT: 2.3
